- System: normal diploid fibroblast (PDL22-32 cells)
- test.description: Test 2-2: fibroblast apoptosis caused by CML-collagen (Caspase Assay), extracts and substances
- Assay type: cell-based, human
- test.conditions: 1 μg/mL
Measured Inhibition Ratio (%) of fibroblast apoptosis (Caspase Assay) by item
experimental.endpoint: Inhibition Ratio (%) of fibroblast apoptosis (Caspase Assay)

1. O=C(O)CC(=O)OCC1O[C@@H](Oc2c(-c3ccc(O)cc3)oc3cc(O)cc(O)c3c2=O)C(O)C(O)[C@@H]1O (stereo partly drawn) = −18.9
2. O=C(/C=C/c1ccc(O)cc1)O[C@@H]1OC(CO)[C@@H](O)C(O)C1O (stereo partly drawn) [1-O-(E)-Coumaroyl-β-D-glucopyranoside] = 17.2

###

Measured Inhibition Ratio (%) of AGE production by item
- Tested on: AGE production
- test.description: Test 1: AGE production inhibition (D-glucose + bovine serum albumin, fluorescence)
- Type: biochemical
- test.conditions: 10 μg/mL
Marks after values point to notes of the source that are not given here.
experimental.endpoint: Inhibition Ratio (%) of AGE production

1) O=C(O)CC(=O)OCC1O[C@@H](Oc2c(-c3ccc(O)c(O)c3)oc3cc(O)cc(O)c3c2=O)C(O)C(O)[C@@H]1O (some centres unmarked) = 20.4 ± 0.3** %
2) O=C(/C=C/c1ccc(O)c(O)c1)O[C@@H]1OC(CO)[C@@H](O)C(O)C1O (stereo partly drawn) [1-O-(E)-Caffeoyl-β-D-glucopyranoside] = 10.7 ± 0.1** %
3) O=c1c(O[C@@H]2O[C@H](CO)[C@@H](O)[C@H](O)[C@H]2O)c(-c2ccc(O)cc2)oc2cc(O)cc(O)c12 [Kaempferol 3-O-β-D-glucopyranoside] = −2.0 ± 0.1%
4) O=c1c(O[C@@H]2O[C@H](CO)[C@@H](O)[C@H](O)[C@H]2O)c(-c2ccc(O)c(O)c2)oc2cc(O)cc(O)c12 [Quercetin 3-O-β-D-glucopyranoside] = 27.6 ± 0.5** %
5) O=C(/C=C/c1ccccc1)O[C@@H]1OC(CO)[C@@H](O)C(O)C1O (stereo partly drawn) [1-O-(E)-Cinnamoyl-β-D-glucopyranoside] = −10.9 ± 0.4* %
6) Cl.N=C(N)NN [Aminoguanidine Hydrochloride, aminoguanidine hydrochloride, reference compound] = 1.4 ± 0.1%
7) O=C(O)CC(=O)OCC1O[C@@H](Oc2c(-c3ccc(O)cc3)oc3cc(O)cc(O)c3c2=O)C(O)C(O)[C@@H]1O (some centres unmarked) = 0.2 ± 0.1%
8) O=C(/C=C/c1ccc(O)cc1)O[C@@H]1OC(CO)[C@@H](O)C(O)C1O (stereo partly drawn) [1-O-(E)-Coumaroyl-β-D-glucopyranoside] = −8.6 ± 0.1** %

###

- Tested on: AGE production
- test.description: Test 1: AGE production inhibition (D-glucose + bovine serum albumin, fluorescence)
- Format: biochemical
- test.conditions: 3 μg/mL
Marks after values point to notes of the source that are not given here.
Measured Inhibition Ratio (%) of AGE production by item
experimental.endpoint: Inhibition Ratio (%) of AGE production

1. O=c1c(O[C@@H]2O[C@H](CO)[C@@H](O)[C@H](O)[C@H]2O)c(-c2ccc(O)cc2)oc2cc(O)cc(O)c12 [Kaempferol 3-O-β-D-glucopyranoside] = −9.1 ± 0.2** %
2. O=C(/C=C/c1ccccc1)O[C@@H]1OC(CO)[C@@H](O)C(O)C1O (stereo partly drawn) [1-O-(E)-Cinnamoyl-β-D-glucopyranoside] = −10.4 ± 0.1%
3. O=C(O)CC(=O)OCC1O[C@@H](Oc2c(-c3ccc(O)c(O)c3)oc3cc(O)cc(O)c3c2=O)C(O)C(O)[C@@H]1O (stereo partly shown) = 1.9 ± 0.1%
4. O=C(O)CC(=O)OCC1O[C@@H](Oc2c(-c3ccc(O)cc3)oc3cc(O)cc(O)c3c2=O)C(O)C(O)[C@@H]1O (stereo partly shown) = −8.5 ± 0.1%
5. O=c1c(O[C@@H]2O[C@H](CO)[C@@H](O)[C@H](O)[C@H]2O)c(-c2ccc(O)c(O)c2)oc2cc(O)cc(O)c12 [Quercetin 3-O-β-D-glucopyranoside] = 6.5 ± 0.1* %
6. O=C(/C=C/c1ccc(O)c(O)c1)O[C@@H]1OC(CO)[C@@H](O)C(O)C1O (stereo partly drawn) [1-O-(E)-Caffeoyl-β-D-glucopyranoside] = 0.9 ± 0.1%
7. O=C(/C=C/c1ccc(O)cc1)O[C@@H]1OC(CO)[C@@H](O)C(O)C1O (stereo partly drawn) [1-O-(E)-Coumaroyl-β-D-glucopyranoside] = −8.2 ± 0.1** %

src = patent US20130196937A1
